The measurements presented in this section are drawn from patent US20200247894A1.

- target: T1, Macaca fascicularis IL2Rγ extracellular domain expressed with a C-terminal myc-myc-hexahistidine tag (Macaca fascicularis)
- T1 construct: also called mfIL-2Rg-MMH; mfIL-2RG-MMH
- T1 chain: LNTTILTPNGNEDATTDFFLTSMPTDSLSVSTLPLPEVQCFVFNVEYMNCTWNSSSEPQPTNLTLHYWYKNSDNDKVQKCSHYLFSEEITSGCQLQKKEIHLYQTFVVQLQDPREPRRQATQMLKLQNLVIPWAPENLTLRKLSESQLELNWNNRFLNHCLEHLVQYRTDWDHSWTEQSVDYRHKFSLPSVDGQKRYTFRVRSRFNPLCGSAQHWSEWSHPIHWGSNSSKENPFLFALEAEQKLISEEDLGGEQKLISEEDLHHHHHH
- assay: SPR Biacore 4000, mAb captured by anti-hFc, HBS-ET, 25C

binder	u	100 nM Ag Bound
H4H12874P (antibody, human IgG4 S228P, kappa, V domains shown, anti-IL2Rγ monoclonal antibody expressed with human IgG4 Fc) VH: QVQLVESGGGVVQPGRSLRLSCAASGFNFRNFGMHWVRQAPGKGLEWVAGILYDGSSKYYADSVKDRFTISRDNSKNTLFLQMNSLRAEDTAMYYCAKEEDTAMVPFDSWGPGTLVTVSS VL: DIQLTQSPSFLSASVGDRVTITCWASQGISSYLAWYQQKPGKAPTLLIYAASTLQSGVPSRFSGSGSGTEFTLTISSLQPEDFASYYCQQLKSYPLTFGGGTKVEIKR	RU	50
H4H12890P (antibody, human IgG4 S228P, kappa, V domains shown, anti-IL2Rγ monoclonal antibody expressed with human IgG4 Fc) VH: EVQLVESGGGLVQPGGSLRLSCAASGFTFNNYAMHWVRQAPGKGLEYVSSISSSGGSTYYEDSVKGRFTISRDNSKNTLYLQMGSLRAEDMAVYYCARSFYGSGTYYDTFDMWGQGTMVTVSS VL: DIQMTQSPSSLSASIGDRVTITCRASQSISRYLNWYQQKPGKAPKLLIYAASSLQSGVPSRFSASGSGTDFTLTISSLQPEDFATYYCQQSYSTPFTFGQGTKLEIKR	RU	37
